- tgt: human H4 receptor (Homo sapiens (Human), UniProt Q9H3N8)
- Sequence (Q9H3N8 whole entry): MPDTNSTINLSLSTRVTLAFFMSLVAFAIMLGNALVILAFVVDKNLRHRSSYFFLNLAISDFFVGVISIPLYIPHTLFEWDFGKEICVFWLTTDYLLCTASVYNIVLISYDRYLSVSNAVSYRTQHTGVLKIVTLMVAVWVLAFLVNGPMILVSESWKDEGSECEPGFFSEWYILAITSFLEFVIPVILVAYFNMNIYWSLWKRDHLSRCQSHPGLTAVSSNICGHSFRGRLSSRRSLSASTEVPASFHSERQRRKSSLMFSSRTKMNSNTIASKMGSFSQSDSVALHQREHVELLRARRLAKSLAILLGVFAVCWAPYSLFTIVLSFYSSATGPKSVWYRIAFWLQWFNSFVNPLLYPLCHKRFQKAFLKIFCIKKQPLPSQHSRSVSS
- experimentDescription: Binding assay on recombinant human histamine H4 receptor ([3H]histamine competition, SK-N-MC cell membranes)
- measurementContext: membranes harvested with cell harvester; [3H]histamine 10 nM; average of results; read-out: Cell Harvester Ki
measuredEndpoint: log10 Ki (log10 of the value in nM)
Friendly reminder: values = log10 of Ki, unit nM.

Query CNC1CN(c2cnnc(NCc3ccccc3)c2)C1 [Example 330] yields log10 Ki of 3.41

Query CN[C@H]1CCN(c2ccnc(NCc3ccccc3)c2)C1 [Example 237] yields log10 Ki of 2.77

Query C[C@@H](Nc1cc(N2CC[C@@H](N)C2)cnn1)c1ccccc1 [Example 321] yields log10 Ki of 2.80

Query CC(C)CNc1cc(N2CC[C@H](N)C2)cnn1 [Example 339] yields log10 Ki of 2.34

Query CC(C)(O)CNc1cc(N2CC[C@H](N)C2)ccn1 [Example 273] yields log10 Ki of 3.50

Query C[C@H]1[C@@H](Nc2nccc(N3CCNCC3)n2)C[C@@H]2C[C@H]1C2(C)C (stereo in doubt) [Example 71] yields log10 Ki of 2.58

Query c1cc(N2C[C@H]3CCN[C@H]3C2)nc(NCC2CCCCC2)n1 [Example 107] yields log10 Ki of 1.84

Query N[C@H]1CCN(c2ccnc(NC3CCCC3)c2)C1 [Example 268] yields log10 Ki of 2.39

Query Cc1ccc(CNc2nccc(N3CC[C@@H](N)C3)n2)cc1 [Example 186] yields log10 Ki of 2.84

Query c1cc(N2CCNCC2)cc(NC2CCCC2)n1 [Example 16] yields log10 Ki of 1.68

Query CN[C@@H]1CCN(c2ccnc(NCC3CC4CCC3C4)c2)C1 (stereo partly shown) [Example 253] yields log10 Ki of 0.64

Query CNC1CN(c2ccnc(NCC3CCCC3)c2)C1 [Example 275] yields log10 Ki of 0.93

Query CN[C@H]1CCN(c2ccnc(NCC(C)(C)CO)n2)C1 [Example 158] yields log10 Ki of 3.54

Query CNC1CN(c2cnnc(NCC3CCCC3)c2)C1 [Example 370] yields log10 Ki of 2.35

Query CN[C@@H]1CCN(c2ccnc(NC3CC4CC(C3C)C4(C)C)n2)C1 (stereo partly shown) [Example 184] yields log10 Ki of 0.20

Query CNC1CN(c2ccnc(NCC(C)C)c2)C1 [Example 34] yields log10 Ki of 1.26

Query CC(C)CNc1cc(N2C[C@H]3CCN[C@H]3C2)ccn1 [Example 257] yields log10 Ki of 1.81

Query CNC1CN(c2ccnc(NCCOC)n2)C1 [Example 182] yields log10 Ki of 1.66

Query N[C@H]1CCN(c2ccnc(NCC3CC3)n2)C1 [Example 109] yields log10 Ki of 1.81

Query CN1CCN(c2ccnc(NCc3ccc(F)cc3)c2)CC1 [Example 249] yields log10 Ki of 2.41

Query c1cc(N2CCNCC2)nc(NCC2CC2)n1 [Example 66] yields log10 Ki of 1.75

Query c1nnc(NCC2CCCC2)cc1N1CCCNCC1 [Example 316] yields log10 Ki of 2.44

Query CN[C@H]1CCN(c2ccnc(NC3C4CC5CC(C4)CC3C5)c2)C1 (stereo partly shown) [Example 215] yields log10 Ki of 1.84

Query CC(C)CNc1nccc(N2CCN(C)CC2)n1 [Example 31] yields log10 Ki of 1.89

Query Cc1ccc(CNc2nccc(N3CCN(C)CC3)n2)cc1 [Example 163] yields log10 Ki of 2.44

Query C[C@@H]1[C@@H](Nc2nccc(N3CCNCC3)n2)C[C@H]2C[C@@H]1C2(C)C [Example 134] yields log10 Ki of 2.84

Query CC(C)(O)CNc1nccc(N2CCNCC2)n1 [Example 177] yields log10 Ki of 2.72

Query CC(C)CNc1cc(N2C[C@H]3CCN[C@H]3C2)cnn1 [Example 318] yields log10 Ki of 3.09

Query CC(C)(O)CNc1cc(N2CC[C@@H](N)C2)ccn1 [Example 279] yields log10 Ki of 2.44

Query CN[C@H]1CCN(c2ccnc(N[C@H]3C[C@H]4CC[C@]3(C)C4(C)C)c2)C1 [Example 206] yields log10 Ki of 1.65

Query CCCCNc1nccc(N2CC[C@H](N)C2)n1 [Example 196] yields log10 Ki of 2.35

Query CN1CCN(c2ccnc(NC[C@H]3CC[C@H]4C[C@@H]3C4(C)C)c2)CC1 [Example 221] yields log10 Ki of 2.93

Query CNC1CN(c2cnnc(NC3CCCC3)c2)C1 [Example 332] yields log10 Ki of 3.22
